These data points were gathered from the supplement of paper PMC8728848.

Biological target: GlcNAc(a1-3)Gal(b1-4)GlcNAc
Experiment: glycan array binding signal (z-score within array); higher = stronger binding
Settings: glycan notation: IUPAC condensed, linker removed
The full list was thinned out, with the strongest signals kept by preference.
Below, each entry is listed alongside its reported glycan array binding signal (z-score).
// print number alone

INSERT INTO assay_data (binder, recorded_value) VALUES
  ('PA-IL (Pseudomonas aeruginosa) (protein) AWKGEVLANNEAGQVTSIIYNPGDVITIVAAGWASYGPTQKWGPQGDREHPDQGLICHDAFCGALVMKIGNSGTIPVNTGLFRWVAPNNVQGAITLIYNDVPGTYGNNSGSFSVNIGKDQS', -0.365);

Please fill in: glycan array binding signal (z-score) reported for SSR1 (Sclerotium rolfsii), A0A0M3KL30 (protein) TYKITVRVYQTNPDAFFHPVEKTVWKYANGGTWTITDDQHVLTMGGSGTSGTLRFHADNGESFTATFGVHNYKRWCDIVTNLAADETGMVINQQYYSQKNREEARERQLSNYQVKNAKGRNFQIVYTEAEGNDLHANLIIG = 3.12

Reported glycan array binding signal (z-score) for FaeGad (Escherichia coli) (protein) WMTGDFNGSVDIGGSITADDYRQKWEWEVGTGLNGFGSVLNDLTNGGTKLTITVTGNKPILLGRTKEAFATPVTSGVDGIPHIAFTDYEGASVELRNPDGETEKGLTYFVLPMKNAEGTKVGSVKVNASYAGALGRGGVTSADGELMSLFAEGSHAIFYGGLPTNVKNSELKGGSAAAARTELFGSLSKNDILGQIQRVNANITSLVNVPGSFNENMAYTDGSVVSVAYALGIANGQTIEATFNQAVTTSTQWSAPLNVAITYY was 0.188

Sure, the documented glycan array binding signal (z-score) for SSP1 (Sclerotinia sclerotiorum), XP_001584968 (protein) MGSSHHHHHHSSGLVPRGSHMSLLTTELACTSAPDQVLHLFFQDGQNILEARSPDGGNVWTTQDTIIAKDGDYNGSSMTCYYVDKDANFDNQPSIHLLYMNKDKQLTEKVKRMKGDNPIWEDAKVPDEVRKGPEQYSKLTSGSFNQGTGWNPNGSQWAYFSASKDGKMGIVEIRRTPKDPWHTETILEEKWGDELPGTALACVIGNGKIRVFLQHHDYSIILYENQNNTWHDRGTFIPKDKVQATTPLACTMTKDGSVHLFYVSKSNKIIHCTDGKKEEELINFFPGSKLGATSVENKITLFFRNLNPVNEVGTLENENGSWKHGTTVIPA is -0.477

Value of glycan array binding signal (z-score) reported for the binder F17fG (Escherichia coli), Q9RH91 (protein) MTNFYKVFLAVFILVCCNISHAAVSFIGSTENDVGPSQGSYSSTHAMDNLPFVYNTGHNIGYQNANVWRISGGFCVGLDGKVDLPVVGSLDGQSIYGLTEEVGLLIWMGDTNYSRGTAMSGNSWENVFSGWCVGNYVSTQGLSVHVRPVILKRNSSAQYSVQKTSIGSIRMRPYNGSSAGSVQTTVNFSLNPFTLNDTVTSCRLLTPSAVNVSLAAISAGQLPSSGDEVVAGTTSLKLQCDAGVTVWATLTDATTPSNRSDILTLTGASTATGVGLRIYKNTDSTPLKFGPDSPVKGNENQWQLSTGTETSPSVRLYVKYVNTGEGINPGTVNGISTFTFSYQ is -0.323
